Assay: chemical genetic growth profiling, strain panel (AID 1159580);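 further: tested at 20 µM; growth read once vehicle control cultures reached saturation at 30 °C; 1 = growth at the plate median or of vehicle wells; lower values mean less growth of the strain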
Details: S. cerevisiae deletion strains, growth OD, locus YPL106C, strain sse1
About 2,000 (36%) of roughly 5,500 compounds were called active. Roughly 18% stayed inconclusive and do not appear here. No stated cut-off is given here; in the data, active means normalized growth mostly below about 0.91 (no sharp cut-off); inconclusive means no clear call, values can overlap the other calls; inactive means mostly above about 0.92. The list shows a part of the results.
Outcomes: active, inactive

INSERT INTO assay_data (compound, category_label) VALUES
  ('NC(=O)c1ccccc1O', 'inactive'),
  ('COc1ccc(-c2cc(=O)c3c(OC)c(OC)c(OC)c(OC)c3o2)cc1OC', 'inactive'),
  ('O=C(/C=C(\O)c1ccccc1)c1ccccc1O', 'inactive'),
  ('COC(=O)C(N)CS (stereo not drawn)', 'inactive'),
  ('CC1(C)[C@@H]2CC[C@@]1(C)C(=O)C2', 'inactive'),
  ('NCC(O)CC(=O)O (stereo not drawn)', 'inactive'),
  ('O=C(O)c1ccccc1O', 'inactive'),
  ('CC(=O)OC1CC[C@@]2(C)C(CCC3C2CC[C@]2(C)C(C4=CC(=O)OC4)C(OC(C)=O)CC32O)C1 (stereo partly drawn)', 'inactive'),
  ('C[C@H]1O[C@@H](O[C@H]2[C@@H](O)C[C@H](O[C@H]3[C@@H](O)C[C@H](O[C@H]4CC[C@]5(C)C6C[C@@H](O)[C@]7(C)[C@@H](C8=CC(=O)OC8)CC[C@]7(O)C6CC[C@@H]5C4)O[C@@H]3C)O[C@@H]2C)C[C@H](O)[C@@H]1O (stereo partly drawn)', 'inactive'),
  ('COc1ccc(-c2cc(=O)c3c(O)c(OC)c(O[C@H]4O[C@H](CO[C@@H]5O[C@@H](C)[C@H](O)[C@@H](O)[C@H]5O)[C@@H](O)[C@H](O)[C@H]4O)cc3o2)cc1', 'inactive'),
  ('O=c1c(O)cc([C@H]2Oc3cc(O)cc(O)c3C[C@H]2O)cc2c([C@H]3Oc4cc(O)cc(O)c4C[C@H]3O)cc(O)c(O)c12', 'inactive'),
  ('C[C@]12CCC3C(CC[C@]4(O)C[C@@H](O)CC[C@]34C=O)[C@@]1(O)CCC2C1=CC(=O)OC1 (stereo partly drawn)', 'inactive'),
  ('Oc1ccc([C@H]2Oc3cc(O)cc(O)c3C[C@H]2O)cc1', 'inactive'),
  ('C[C@@H]1O[C@@H](O[C@H]2CC[C@]3(C=O)C4CC[C@]5(C)[C@@H](C6=CC(=O)OC6)CC[C@]5(O)C4CC[C@]3(O)C2)[C@H](O)[C@H](O)[C@H]1O (stereo partly drawn)', 'inactive'),
  ('CC1(C)C(O)CC(=O)C2(C)C1CC(O)C1(C)C2CCC2(C)C(c3ccoc3)OC(=O)C3OC321 (stereo not drawn)', 'inactive'),
  ('C[C@@H]1CC[C@@]23CCC4(C)[C@@](C=CC5[C@@]6(C)CC[C@H](O)C(C)(C)C6CC[C@]54C)(OC2=O)C3[C@H]1C (stereo partly drawn)', 'inactive'),
  ('COC1CC(OC2CCC3(C)C(CCC4C3CCC3(C)C(C5=CC(=O)OC5)C(OC(C)=O)CC43O)C2)OC(C)C1O (stereo not drawn)', 'inactive'),
  ('CN(C)C(=O)C(CCN1CCC(O)(c2ccc(Cl)cc2)CC1)(c1ccccc1)c1ccccc1', 'inactive'),
  ('C=CCSSSCC=C', 'inactive'),
  ('CCC(=O)NCC[C@@H]1CCc2ccc3c(c21)CCO3', 'inactive'),
  ('COc1ccc(-c2cc(=O)c3c(O)cc(O)cc3o2)cc1', 'inactive'),
  ('C=CCSC[C@@H](N)C(=O)O', 'inactive'),
  ('COc1nc(NC(C)C)nc(NC(C)C)n1', 'inactive'),
  ('COc1cc(-c2cc(=O)c3c(O)c(OC)c(OC)c(OC)c3o2)cc(OC)c1OC', 'inactive'),
  ('CC(C)Nc1nc(Cl)nc(NC(C)C)n1', 'inactive'),
  ('CC1(C)S[C@@H]2[C@H](NC(=O)[C@@H](N)c3ccc(O)cc3)C(=O)N2[C@H]1C(=O)O', 'inactive'),
  ('Cc1ccccc1N1C(=O)c2cc(S(N)(=O)=O)c(Cl)cc2NC1C (stereo not drawn)', 'inactive'),
  ('CC1=CC(=O)C(C(C)C)=CC1=O', 'inactive'),
  ('Cc1cc(N)c2ccccc2[n+]1CCCCCCCCCC[n+]1c(C)cc(N)c2ccccc21', 'active'),
  ('CC1=C2C(O)C(=O)OC3CC4C(C)(C)C(=O)C=C[C@]4(C)C(CC1)[C@]23C (stereo partly drawn)', 'inactive'),
  ('CN[C@H]1CC[C@@H](c2ccc(Cl)c(Cl)c2)c2ccccc21', 'inactive'),
  ('NC[C@@H]1O[C@H](O[C@@H]2[C@@H](CO)OC(O[C@@H]3[C@@H](O)[C@H](N)C[C@H](N)[C@H]3O[C@H]3O[C@H](CO)[C@@H](O)[C@H](O)[C@H]3N)[C@@H]2O)[C@H](N)[C@@H](O)[C@@H]1O (stereo partly drawn)', 'inactive'),
  ('NCCCC(O)(P(=O)(O)O)P(=O)(O)O', 'inactive');

====

Assay: chemical genetic growth profiling, strain panel (AID 1159580);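 further: tested at 20 µM; growth read once vehicle control cultures reached saturation at 30 °C; 1 = growth at the plate median or of vehicle wells; lower values mean less growth of the strain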
Conditions: S. cerevisiae deletion strains, growth OD, locus YOR329C, strain SCD5, active compounds read low
Out of some 5,500 compounds screened, about 2,000 (36%) were called active. Inconclusive results (about 18%) are left out. The list shows a part of the results.
Readout Name: normalized growth

INSERT INTO measurements (molecule, readout_name, experimental_value) VALUES
  ('Clc1cccc(Cl)c1C1CC(c2ccccc2)=Nc2ccccc2S1 (stereo unspecified)', 'normalized growth', 0.978),
  ('O=C1Nc2ccccc2/C1=C\c1cccc2ccccc12', 'normalized growth', 0.966),
  ('N#C/C(N=Cc1cc(Cl)cc(Cl)c1O)=C(\C#N)N=Cc1cc(Cl)cc(Cl)c1O', 'normalized growth', 0.931),
  ('C/C(=N/NC(N)=S)c1csc(-c2ccccc2)n1', 'normalized growth', 0.943),
  ('O=c1[nH][nH]c(=O)n1CCCc1cc2cccc3ccc4cccc1c4c32', 'normalized growth', 0.991),
  ('O=C(OCc1ccccc1Br)c1cc([N+](=O)[O-])cc([N+](=O)[O-])c1', 'normalized growth', 0.973);

====

Assay: chemical genetic growth profiling, strain panel (AID 1159580);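 further: tested at 20 µM; growth read once vehicle control cultures reached saturation at 30 °C; 1 = growth at the plate median or of vehicle wells; lower values mean less growth of the strain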
Conditions: S. cerevisiae deletion strains, growth OD, locus YLR342W, strain FKS1 (second series), active compounds read low
The campaign covered roughly 5,500 compounds. About 2,000 (36%) were called active. Roughly 18% stayed inconclusive and do not appear here. The list shows a part of the results.
In plain terms, low normalized growth, meaning strictly below 1, gives Fulfilled, and everything else gives Not fulfilled.

INSERT INTO assay_data (compound, category_label) VALUES
  ('CO[C@@H]1[C@@H](OC(N)=O)[C@@H](O)[C@H](Oc2ccc3c(O)c(NC(=O)c4ccc(O)c(CC=C(C)C)c4)c(=O)oc3c2C)OC1(C)C', 'Not fulfilled'),
  ('CCOC(=O)C1=C(O)C(=O)N(Cc2ccccc2)C1', 'Not fulfilled'),
  ('Cc1cc(N)c2ccccc2[n+]1CCCCCCCCCC[n+]1c(C)cc(N)c2ccccc21', 'Fulfilled'),
  ('COc1ccc(-c2cc(=O)c3c(O)cc(O)cc3o2)cc1', 'Not fulfilled'),
  ('O=C(O)c1cc(O)ccc1O', 'Fulfilled'),
  ('O=C(O)CN(CCN(CC(=O)O)CC(=O)O)CC(=O)O', 'Fulfilled'),
  ('NS(=O)(=O)c1cc2c(cc1C(F)(F)F)NC(Cc1ccccc1)NS2(=O)=O (centres undefined)', 'Not fulfilled'),
  ('O=C(CCCN1CCC2(CC1)C(=O)NCN2c1ccccc1)c1ccc(F)cc1', 'Not fulfilled'),
  ('CN(C)C(=O)C(CCN1CCC(O)(c2ccc(Cl)cc2)CC1)(c1ccccc1)c1ccccc1', 'Fulfilled'),
  ('O=C(/C=C(\O)c1ccccc1)c1ccccc1O', 'Fulfilled'),
  ('CC1=CC(=O)C(C(C)C)=CC1=O', 'Fulfilled'),
  ('N#Cc1c(Cl)cccc1Cl', 'Not fulfilled'),
  ('COc1ccc(-c2cc(=O)c3c(O)c(OC)c(OC)cc3o2)cc1O', 'Fulfilled'),
  ('CCOC(=O)CC(SP(=S)(OC)OC)C(=O)OCC (centres undefined)', 'Not fulfilled'),
  ('C/C=C/CC(C)C(O)C1C(=O)NC(CC)C(=O)N(C)CC(=O)N(C)C(CC(C)C)C(=O)NC(C(C)C)C(=O)N(C)C(CC(C)C)C(=O)NC(C)C(=O)NC(C)C(=O)N(C)C(CC(C)C)C(=O)N(C)C(CC(C)C)C(=O)N(C)C(C(C)C)C(=O)N1C (centres undefined)', 'Fulfilled');

====

Entries annotated with measured normalized growth
Assay: chemical genetic growth profiling, strain panel (AID 1159580);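 further: tested at 20 µM; growth read once vehicle control cultures reached saturation at 30 °C; 1 = growth at the plate median or of vehicle wells; lower values mean less growth of the strain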
Conditions: S. cerevisiae deletion strains, growth OD, locus YHR087W, strain rtc3, active compounds read low
Screen size: about 5,500 compounds; about 2,000 (36%) were called active. Roughly 18% stayed inconclusive and do not appear here. This is one part of the list.
Readout Name: normalized growth

INSERT INTO assay_data (compound, experimental_value) VALUES
  ('CCCCCCCCCCCCSc1nnc(N)s1', 1.02),
  ('Cn1c(SCC(=O)N2CCOCC2)nnc1-c1ccc2ncccc2c1', 1.01),
  ('COc1cc(NC(=S)N2CCN(c3ccccc3OC)CC2)c(OC)cc1Cl', 1.01),
  ('COc1ccccc1N1CCN(C(=O)C(C)Nc2ccccn2)CC1 (configuration not stated)', 1.01),
  ('O=C(O/N=C1/CCCc2[nH]c3ccccc3c21)c1ccc(Cl)cc1Cl', 0.982),
  ('NC(N)=NC(N)=Nc1cc(Cl)cc(Cl)c1', 1.01),
  ('N#CCS(=O)(=O)c1cccs1', 1),
  ('O=C(Nc1ccc(OC(F)(F)F)cc1)Nc1cccc(C(=O)O)c1', 1.02),
  ('N#CCCN1C(=O)C2(OCCO2)c2ccccc21', 0.991),
  ('CN(C)/C=C1\CSc2ccc(F)cc2C1=O', 0.753),
  ('O=C(O)C1CC(=O)N(Cc2ccccc2Cl)C1 (configuration not stated)', 1.01),
  ('Cn1c2c(c3ccccc31)/C(=N\OC(=O)c1ccc(Cl)cc1Cl)CCC2', 0.986),
  ('O=[N+]([O-])c1cnc2ccccn12', 1.01),
  ('COc1ccccc1N1CCN(C(=O)c2cccs2)CC1', 0.985),
  ('NC(=S)CS(=O)(=O)c1ccc(C(F)(F)F)cc1', 1.01),
  ('COc1ccccc1N1CCN(C(=O)Nc2cc(Cl)cc(Cl)c2)CC1', 0.97),
  ('CC(C)(C)C1=CC(=O)C=C(C(C)(C)C)C1=O', 1);

Just for reference, PubChem BioAssay AID1159580 is where these values come from.
